target: Histone deacetylase 8 (Homo sapiens, UniProt Q9BY41); test: Inhibition of human recombinant HDAC8
Sequence (Q9BY41 whole entry): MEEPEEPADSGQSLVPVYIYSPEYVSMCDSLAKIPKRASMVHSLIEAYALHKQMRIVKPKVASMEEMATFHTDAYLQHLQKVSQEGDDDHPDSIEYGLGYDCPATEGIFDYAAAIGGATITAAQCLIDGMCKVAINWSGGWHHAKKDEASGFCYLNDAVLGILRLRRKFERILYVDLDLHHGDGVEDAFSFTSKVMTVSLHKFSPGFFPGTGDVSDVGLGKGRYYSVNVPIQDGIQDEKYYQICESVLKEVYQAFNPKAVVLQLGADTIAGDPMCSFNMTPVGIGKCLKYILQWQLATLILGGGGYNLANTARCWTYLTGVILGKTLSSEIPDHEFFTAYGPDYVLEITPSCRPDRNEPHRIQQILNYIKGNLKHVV
outcome_measure: IC50 (nM)
The response must be a number in nM with no trailing unit.

# molecule, outcome_measure, data_value
records = [
    ("CN1CCCC(n2c(-c3cccc(/C=C/C(=O)NO)c3)nc3ccccc32)C1 (racemic)", "IC50", 160),
    ("CN(C)CCn1c(-c2cccc(/C=C/C(=O)NO)c2)nc2ccccc21", "IC50", 160),
    ("Cc1nc(C)n(CCc2ccccc2)c1-c1cccc(/C=C/C(=O)NO)c1", "IC50", 100),
    ("O=C(/C=C/c1cccc(-c2nc3ccccc3n2C2CCCNC2)c1)NO (racemic)", "IC50", 160),
    ("CCN1CCCC(n2c(-c3cccc(/C=C/C(=O)NO)c3)nc3ccccc32)C1 (racemic)", "IC50", 120),
]

Task: Quick check: IC50 on Histone deacetylase 8 (Homo sapiens, UniProt Q9BY41), item `O=C(/C=C/c1cccc(-c2nc3ccccc3n2[C@H]2CCCNC2)c1)NO` ?
Output: 120

Task: Kindly state the measured IC50 obtained for `CCN1CCC[C@@H](n2c(-c3cccc(/C=C/C(=O)NO)c3)nc(C)c2C)C1` with Histone deacetylase 8 (Homo sapiens, UniProt Q9BY41).
Output: 100

Task: Form field: IC50 recorded for `CCN1CCC[C@@H](n2c(Cc3ccccc3)nc(C)c2-c2cccc(/C=C/C(=O)NO)c2)C1` with Histone deacetylase 8 (Homo sapiens, UniProt Q9BY41) (enter value)
Output: 100

* * *

system: HL-60; assay: Cytotoxicity against human HL60 cells assessed as NADH level after 72 hrs by MTS cells; type: functional, cell-based; conditions: HL-60, 72 h
outcome_measure: pEC50
Scale note: pEC50 = -log10(concentration in M).

# compound, outcome_measure, data_value
rows = [
    ("O=C(/C=C/c1cccc(-c2nc3ccccc3n2Cc2ccccc2)c1)NO", "pEC50", 5.30),
    ("CCN(CC)CCn1c(-c2cccc(/C=C/C(=O)NO)c2)nc2ccccc21", "pEC50", 6.10),
    ("O=C(/C=C/c1cccc(-c2nc3ccccc3n2CCc2ccccc2)c1)NO", "pEC50", 6.52),
    ("CCN1CCC[C@H](n2c(-c3cccc(/C=C/C(=O)NO)c3)nc3ccccc32)C1", "pEC50", 7.10),
    ("CCN1CCCC(n2c(-c3cccc(/C=C/C(=O)NO)c3)nc3ccccc32)C1 (racemic)", "pEC50", 7.22),
]

Let us move to another entry and its pEC50.
Task: Given the entry `CN1CCC[C@@H](n2c(-c3cccc(/C=C/C(=O)NO)c3)nc3ccccc32)C1` , what pEC50 was observed with HL-60?
Output: 7.40

* * *

Target: Protein deacetylase HDAC6 (Homo sapiens, UniProt Q9UBN7)
Sequence (Q9UBN7 whole entry): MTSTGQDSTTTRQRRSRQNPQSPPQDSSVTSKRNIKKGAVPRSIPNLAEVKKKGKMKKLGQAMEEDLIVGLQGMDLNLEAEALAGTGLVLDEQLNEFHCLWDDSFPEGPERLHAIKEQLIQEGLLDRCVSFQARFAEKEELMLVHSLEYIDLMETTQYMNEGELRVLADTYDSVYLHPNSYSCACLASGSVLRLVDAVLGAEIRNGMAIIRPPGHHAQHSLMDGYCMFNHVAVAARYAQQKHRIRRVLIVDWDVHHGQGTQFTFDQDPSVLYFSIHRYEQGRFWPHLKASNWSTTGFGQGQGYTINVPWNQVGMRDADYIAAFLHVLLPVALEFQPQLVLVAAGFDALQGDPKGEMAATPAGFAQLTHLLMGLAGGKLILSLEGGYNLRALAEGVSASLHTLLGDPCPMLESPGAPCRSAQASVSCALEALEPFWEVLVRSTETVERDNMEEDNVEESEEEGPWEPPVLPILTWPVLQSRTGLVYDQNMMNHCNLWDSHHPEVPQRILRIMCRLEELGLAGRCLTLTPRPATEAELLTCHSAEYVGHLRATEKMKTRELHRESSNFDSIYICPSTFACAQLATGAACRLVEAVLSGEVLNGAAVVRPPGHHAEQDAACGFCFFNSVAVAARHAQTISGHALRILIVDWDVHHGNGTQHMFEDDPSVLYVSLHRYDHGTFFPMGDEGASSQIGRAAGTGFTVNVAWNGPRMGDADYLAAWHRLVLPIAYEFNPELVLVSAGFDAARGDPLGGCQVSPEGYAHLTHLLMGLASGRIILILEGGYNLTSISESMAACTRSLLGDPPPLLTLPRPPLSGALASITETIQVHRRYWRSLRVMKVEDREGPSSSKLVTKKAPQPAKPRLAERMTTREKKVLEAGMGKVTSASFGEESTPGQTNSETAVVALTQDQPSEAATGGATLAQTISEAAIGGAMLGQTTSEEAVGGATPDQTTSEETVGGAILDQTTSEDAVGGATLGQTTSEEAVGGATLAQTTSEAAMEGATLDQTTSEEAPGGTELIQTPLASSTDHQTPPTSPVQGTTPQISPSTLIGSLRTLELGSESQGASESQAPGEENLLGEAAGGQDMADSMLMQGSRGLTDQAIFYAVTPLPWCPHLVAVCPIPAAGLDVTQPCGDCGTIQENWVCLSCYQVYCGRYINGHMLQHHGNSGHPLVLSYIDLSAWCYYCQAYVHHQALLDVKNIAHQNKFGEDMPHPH
Test: Inhibition of human recombinant HDAC6
Quick reference for log10(IC50) among some compounds
Plainly stated, the numbers are log10 of IC50 given in nM.

Solved entries (count: 5):
# compound, data_value
records = [
    ("O=C(/C=C/c1cccc(-c2nc3ccccc3n2CCN2CCCCC2)c1)NO", 1.60),
    ("O=C(/C=C/c1cccc(-c2nc3ccccc3[nH]2)c1)NO", 2.00),
    ("Cc1nc(-c2cccc(/C=C/C(=O)NO)c2)n([C@@H]2CCCN(C(C)C)C2)c1-c1ccccc1", 2.00),
    ("Cc1c(-c2ccccc2)nc(-c2cccc(/C=C/C(=O)NO)c2)n1[C@@H]1CCCN(C)C1", 1.80),
    ("CCN1CCC[C@@H](n2c(Cc3ccccc3)nc(C)c2-c2cccc(/C=C/C(=O)NO)c2)C1", 2.70),
]

Task: Reported log10(IC50) for `Cc1nc(-c2cccc(/C=C/C(=O)NO)c2)n(CCN2CCOCC2)c1-c1ccccc1` : what is it?
Output: 2.08

Task: What value of measured log10(IC50) is listed for `CCN1CCC[C@@H](n2c(-c3cccc(/C=C/C(=O)NO)c3)nc(Cc3ccccc3)c2C)C1` ?
Output: 2.00

Task: # query: log10(IC50) of entry `CCN1CCC[C@@H](n2c(-c3cccc(/C=C/C(=O)NO)c3)nc(C)c2-c2ccccc2)C1`
Output: 1.90

Task: Requested read-out: log10(IC50). Entry: `CN(C)CCn1c(-c2cccc(/C=C/C(=O)NO)c2)nc2ccccc21`
Output: 1.90
